biological target: Fyn (UniProt P06241); assay: phosphorylation enrichment, bacterial display (enrichment ratio); higher = better substrate or ligand; peptides without Tyr show the background
Sequence (P06241 whole entry, looked up): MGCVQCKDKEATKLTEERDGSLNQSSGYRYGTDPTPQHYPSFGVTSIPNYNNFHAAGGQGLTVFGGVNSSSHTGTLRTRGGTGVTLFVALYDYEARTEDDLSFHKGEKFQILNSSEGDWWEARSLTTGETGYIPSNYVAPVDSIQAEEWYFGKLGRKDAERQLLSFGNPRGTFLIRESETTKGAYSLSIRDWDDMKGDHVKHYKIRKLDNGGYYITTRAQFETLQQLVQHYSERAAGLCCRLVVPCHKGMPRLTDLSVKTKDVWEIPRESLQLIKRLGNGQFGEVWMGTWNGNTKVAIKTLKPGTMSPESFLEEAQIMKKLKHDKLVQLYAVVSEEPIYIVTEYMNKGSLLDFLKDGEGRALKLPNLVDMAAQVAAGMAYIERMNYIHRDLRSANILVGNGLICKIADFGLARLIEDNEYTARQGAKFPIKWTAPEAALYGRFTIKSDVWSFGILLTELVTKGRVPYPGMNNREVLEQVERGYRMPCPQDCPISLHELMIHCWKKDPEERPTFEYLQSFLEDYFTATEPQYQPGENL
In this section we review reported phosphorylation enrichment values for a set of sequences.

In the examples that follow, each entry is paired with its recorded phosphorylation enrichment.
Residues: RGKDNYETSQL [SPP1_Y225_S224N]
Observed value: 0.549
//
Residues: LGQRIYQYIRS [DYRK1B_Y271_Q275R]
Observed value: 1.65
//
Residues: CFTGKYTLPPG [HSPB1_Y142_R140G]
Observed value: 0.595

Request - read-out phosphorylation enrichment | tested on Fyn (UniProt P06241) | sequence VDSAHYQLLET [DTX3L_Y385_K386Q]
0.588

For Fyn (UniProt P06241), provide phosphorylation enrichment of IAINKYGVSLI [MYO7A_Y2136] please.
0.432

Record YHIDHYLGKEM [G6PD_Y202_R198H] : what is its phosphorylation enrichment with Fyn (UniProt P06241)?
0.482

Notebook: pull reported phosphorylation enrichment for Fyn (UniProt P06241), entry TLNHQYDFTFH [CSNK1A1_Y292_D297H_YF]
0.588

What value of phosphorylation enrichment on Fyn (UniProt P06241) does EALDFYGEVRI [PTEN_Y155_T160I] have?
1.64

Give phosphorylation enrichment (Fyn (UniProt P06241)) of the following sequence: NDLMEYPKQHG [ASS1_Y163_A164P]
0.503

###

target: Grb2 SH2 (UniProt P62993); assay: SH2 binding enrichment of the phosphorylated peptide, bacterial display (enrichment ratio); higher = better substrate or ligand; peptides without Tyr show the background
Sequence (P62993 whole entry, looked up): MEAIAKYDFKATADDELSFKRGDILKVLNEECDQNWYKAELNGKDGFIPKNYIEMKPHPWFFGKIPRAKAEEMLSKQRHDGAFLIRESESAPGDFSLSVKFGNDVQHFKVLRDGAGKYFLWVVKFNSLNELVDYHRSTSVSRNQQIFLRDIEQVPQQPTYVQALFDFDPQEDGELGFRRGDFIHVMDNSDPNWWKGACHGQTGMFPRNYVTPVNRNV
Everything with SH2 binding enrichment lower than 0.9 is False; everything else, including exactly 0.9, is True.

Please review the entries below; each comes with its answer.
Residues: FIGRIYLYLTK [GARS1_Y414]
Assigned label: True
//
Residues: LRAGVYREKDQ [DNM2_Y626_P627R]
Assigned label: False
//
Residues: NGSKAYAFVHF [PABPC5_Y147_G146A_YF]
Assigned label: True

Reported SH2 binding enrichment at or above 0.9? NDQANYLLNTD [ADA_Y290_S291L]
False

Check this sequence for SH2 binding enrichment at or above 0.9: AGDGRYEVLFL [SEMA3F_Y478_A474G]
False

Dear colleague, could you confirm whether LEITWYPFDVE [RIPOR2_Y316] has SH2 binding enrichment at or above 0.9?
True

Quick check, SH2 binding enrichment >= 0.9? DQNVEYKGTVS [FHL1_Y117_W122S]
False

I'd appreciate it if you could say whether SLDLSYYHTSS [EMD_Y181_P183H] has SH2 binding enrichment at least equal to 0.9.
False

###

test system: c-Src; assay: phosphorylation enrichment, bacterial display (enrichment ratio); higher = better substrate or ligand; peptides without Tyr show the background
Overview of reported phosphorylation enrichment across a group of sequences:
// return a plain number; no unit text

Here is how some sequences turned out for phosphorylation enrichment.
Residues: GGFTCCCDGKK [PROS1_Y266_Y266C_YF]
Experimental target: c-Src
Measured parameter: phosphorylation enrichment
Observed value: 0.546

Residues: IAINKYGVSLI [MYO7A_Y2136]
Experimental target: c-Src
Measured parameter: phosphorylation enrichment
Observed value: 0.441

Residues: SMAKFYASEIA [ACADSB_Y373_YF]
Experimental target: c-Src
Measured parameter: phosphorylation enrichment
Observed value: 0.464

Residues: MIRSTYALGGL [CPS1_Y590_A589T]
Experimental target: c-Src
Measured parameter: phosphorylation enrichment
Observed value: 0.546

Residues: EHVMPYAANKN [GRIN2A_Y1431]
Experimental target: c-Src
Measured parameter: phosphorylation enrichment
Observed value: 0.375

Residues: RLAKTYETTLK [ALB_Y377_E382K]
Experimental target: c-Src
Measured parameter: phosphorylation enrichment
Observed value: 0.817

Residues: FDCGMYSHLQG [LGR4_Y848_YF]
Experimental target: c-Src
Measured parameter: phosphorylation enrichment
Observed value: 3.25

Residues: NALVQYQEMEK [BBS4_Y395_A393V]
Experimental target: c-Src
Measured parameter: phosphorylation enrichment
Observed value: 0.507

// next item, phosphorylation enrichment requested
Find the measured phosphorylation enrichment: item QRPYVYYYSYL [PTEN_Y176_R173P] , target or system c-Src.
5.34

Ref: the supplement of paper PMC10065799
